- SUBJECT_OF_TEST: human mGluR2 (Homo sapiens)
- Construct: expressed in transfected cells; host or cells: CHO cells (membrane preparation)
- Sequence (Q14416 19-872): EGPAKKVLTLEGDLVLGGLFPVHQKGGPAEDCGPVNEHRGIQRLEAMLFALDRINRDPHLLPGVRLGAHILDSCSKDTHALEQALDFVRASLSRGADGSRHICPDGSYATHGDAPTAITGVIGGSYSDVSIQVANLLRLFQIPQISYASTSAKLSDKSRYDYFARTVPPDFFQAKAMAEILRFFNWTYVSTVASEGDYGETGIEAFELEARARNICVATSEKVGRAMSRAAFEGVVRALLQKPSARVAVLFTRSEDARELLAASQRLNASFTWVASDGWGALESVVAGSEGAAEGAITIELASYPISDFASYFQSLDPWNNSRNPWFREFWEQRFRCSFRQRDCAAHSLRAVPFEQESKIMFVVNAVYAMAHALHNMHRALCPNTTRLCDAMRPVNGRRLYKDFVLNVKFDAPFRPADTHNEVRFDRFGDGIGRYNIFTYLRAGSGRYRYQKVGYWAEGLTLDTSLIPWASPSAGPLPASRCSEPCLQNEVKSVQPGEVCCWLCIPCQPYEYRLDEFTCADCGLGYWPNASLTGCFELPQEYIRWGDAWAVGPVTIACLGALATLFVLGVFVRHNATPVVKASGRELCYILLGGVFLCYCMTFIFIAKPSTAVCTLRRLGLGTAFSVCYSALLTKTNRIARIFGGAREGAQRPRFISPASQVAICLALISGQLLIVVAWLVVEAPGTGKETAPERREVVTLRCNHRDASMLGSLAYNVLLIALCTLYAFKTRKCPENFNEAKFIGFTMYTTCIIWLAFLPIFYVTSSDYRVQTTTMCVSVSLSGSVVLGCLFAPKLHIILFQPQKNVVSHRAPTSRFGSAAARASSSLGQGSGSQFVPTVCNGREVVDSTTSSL
- ASSAY_METHOD_TEXT: [35S]GTPγS binding assay (PAM assay) using membranes from CHO cells transfected with the human mGluR2 receptor
- Format: biochemical
- CONDITION_SUMMARY: in presence of glutamate at predetermined EC25 concentration; membranes containing human mGluR2; averages of duplicate values of 11-concentration response curves; read-out: GTPγS -hR2 PAM pEC50 (converted)
- Experimental: The [^35S]GTPγS binding assay is a functional membrane-based assay used to study G-protein coupled receptor (GPCR) function whereby incorporation of a non-hydrolysable form of GTP, [^35S]GTPγS (guanosine 5′-triphosphate, labelled with […] ^35S), is measured. […]
Rule: EC50 below 300 nM gives fulfilled. Equal to or above 300 nM gives not fulfilled.

Criterion: EC50 strictly below 300 nM. Is it met by "N#Cc1c(-c2ccc3c(c2)OCCN3CC2CC2)ccn2c(CC(F)(F)F)cnc12" ?
fulfilled

Criterion: EC50 strictly below 300 nM. Is it met by "N#Cc1c(-c2ccc3c(ccn3-c3ccc(F)cc3)c2)ccn2c(CC(F)(F)F)cnc12" ?
fulfilled

Criterion: EC50 strictly below 300 nM. Is it met by "N#Cc1c(-c2ccc3c(ccn3Cc3ccncc3)c2)ccn2c(CC(F)(F)F)cnc12" ?
fulfilled

Criterion: EC50 strictly below 300 nM. Is it met by "C[C@]1(O)CC[C@@H](n2ccc3cc(-c4ccn5c(CC(F)(F)F)cnc5c4C#N)ccc32)CC1" ?
not fulfilled

Criterion: EC50 strictly below 300 nM. Is it met by "FC(F)(F)Cc1cnc2c(Cl)c(-c3ccc4c(ccn4-c4ncccn4)c3)ccn12" ?
not fulfilled

Criterion: EC50 strictly below 300 nM. Is it met by "N#Cc1c(-c2ccc3c(ccn3[C@H]3CC[C@H](O)CC3)c2)ccn2c(CC(F)(F)F)cnc12" ?
fulfilled

Criterion: EC50 strictly below 300 nM. Is it met by "O[C@H]1CC[C@H](n2ccc3cc(-c4ccn5c(CC(F)(F)F)cnc5c4Cl)ccc32)CC1" ?
fulfilled

###

- SUBJECT_OF_TEST: human mGluR2 (Homo sapiens)
- Construct: expressed in transfected cells; host or cells: CHO cells (membrane preparation)
- ASSAY_METHOD_TEXT: [35S]GTPγS binding assay (PAM assay) using membranes from CHO cells transfected with the human mGluR2 receptor
- Assay type: biochemical
- CONDITION_SUMMARY: in presence of glutamate at predetermined EC25 concentration; membranes containing human mGluR2; averages of duplicate values of 11-concentration response curves
Can you tell me GTPγS -hR2 PAM pEC50 for the items I'm about to list?
Lab note: write the figure by itself, no unit.

What value of measured GTPγS -hR2 PAM pEC50 is listed for Cn1ccc2cc(-c3ccn4c(CC(F)(F)F)cnc4c3C#N)ccc21 [Compound 7] ?
6.64

What value of measured GTPγS -hR2 PAM pEC50 is listed for FC(F)(F)Cc1cnc2c(Cl)c(-c3cc(Cl)c4[nH]ccc4c3)ccn12 [Compound 2] ?
7.07

What value of measured GTPγS -hR2 PAM pEC50 is listed for FC(F)(F)Cc1cnc2c(Cl)c(-c3cc(Cl)c4c(ccn4CC4CC4)c3)ccn12 [Compound 18] ?
6.60

What value of measured GTPγS -hR2 PAM pEC50 is listed for N#Cc1c(-c2cc(Cl)c3c(ccn3CC3CC3)c2)ccn2c(CC(F)(F)F)cnc12 [Compound 11] ?
6.96
